Listed below: IC50 values for each entry.
biological target: recombinantly expressed human PARP-1 enzyme (Homo sapiens); assay: PARP enzyme assay, Method B (tritium-labeled NAD incorporation); type: biochemical; conditions: Method B; 200 μM NAD, room temperature 1 hour, pH 8.0; read-out: IC50 (μM)/Method B
Sequence (P09874 whole entry): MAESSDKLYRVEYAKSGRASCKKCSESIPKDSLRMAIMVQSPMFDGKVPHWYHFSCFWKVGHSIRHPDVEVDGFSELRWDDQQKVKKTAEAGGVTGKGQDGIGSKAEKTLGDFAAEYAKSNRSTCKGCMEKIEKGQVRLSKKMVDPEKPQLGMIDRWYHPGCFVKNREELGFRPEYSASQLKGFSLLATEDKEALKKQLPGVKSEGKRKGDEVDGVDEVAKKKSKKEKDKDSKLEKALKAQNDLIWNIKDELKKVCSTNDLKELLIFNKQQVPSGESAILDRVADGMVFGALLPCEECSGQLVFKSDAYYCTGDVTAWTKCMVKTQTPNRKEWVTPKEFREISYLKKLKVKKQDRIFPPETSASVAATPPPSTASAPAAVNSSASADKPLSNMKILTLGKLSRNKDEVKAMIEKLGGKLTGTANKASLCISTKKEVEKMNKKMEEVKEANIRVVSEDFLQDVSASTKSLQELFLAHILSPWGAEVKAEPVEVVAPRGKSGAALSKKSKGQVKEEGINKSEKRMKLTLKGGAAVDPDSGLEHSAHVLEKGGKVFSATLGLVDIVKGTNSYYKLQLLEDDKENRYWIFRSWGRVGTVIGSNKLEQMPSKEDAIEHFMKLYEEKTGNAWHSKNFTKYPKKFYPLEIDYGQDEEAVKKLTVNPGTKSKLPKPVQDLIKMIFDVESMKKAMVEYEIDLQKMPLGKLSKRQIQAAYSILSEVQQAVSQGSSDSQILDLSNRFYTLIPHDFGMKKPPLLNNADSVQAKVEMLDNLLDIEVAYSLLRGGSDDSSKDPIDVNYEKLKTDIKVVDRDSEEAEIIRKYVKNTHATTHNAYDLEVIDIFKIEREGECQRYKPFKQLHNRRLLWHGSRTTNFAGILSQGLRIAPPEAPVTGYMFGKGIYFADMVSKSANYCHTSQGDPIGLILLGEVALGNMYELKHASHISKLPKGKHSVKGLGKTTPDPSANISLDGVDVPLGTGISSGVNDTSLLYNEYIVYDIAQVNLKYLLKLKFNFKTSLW
Respond with the bare value in µM.

Req: Please report the measured IC50 for CCc1cc(-c2ccc(CNCc3ccc(NC(C)=O)cc3)o2)c(C)[nH]c1=O [Example 182B]
Resp: 0.29

Req: Read the entry CCc1cc(-c2cccc(CNCc3ccccn3)n2)c(C)[nH]c1=O [Example 182H] and write its reported IC50.
Resp: 1.11

Req: Input CCc1cc(-c2ccc(CNC(=O)c3ccc(OC)cc3)o2)c(C)[nH]c1=O [Example 272] , output reported IC50.
Resp: 0.44

Req: Complete the entry with IC50 for CCc1cc(-c2cncc(C(=O)NCC(O)c3ccccc3)c2)c(C)[nH]c1=O (centres unmarked) [Example 253]
Resp: 0.49
